Data provenance is ChEMBL document CHEMBL3227962.

Species: Rattus norvegicus
assay.text: Inhibition of ribonucleotide reductase purified from rat Novikoff hepatoma assessed as inhibition of [3H]CDP to [3H]dCDP conversion after 40 mins
Documented ID50 across a set of molecules
measured.property: ID50 (µM)

1) O=C(NO)c1cc(O)ccc1O | 200
2) O=C(NO)c1cc(O)cc(O)c1 | 400
3) O=C(NO)c1ccc(O)cc1 | 250
4) O=C(NO)c1ccc(O)c(O)c1 | 30
5) Nc1ccccc1C(=O)NO | 120
6) O=C(NO)c1c(O)cccc1O | 100
7) O=C(NO)c1ccccc1O [SALICYLHYDROXAMIC ACID] | 150
8) O=C(NO)c1ccccc1 [BENZOHYDROXAMATE] | 400
9) Nc1ccc(C(=O)NO)cc1 | 150
10) O=C(NO)c1cc(O)c(O)c(O)c1 | 10
